System: KM12 colon
procedure.details: NCI tumour cell line growth inhibition, 48 h

molecule	TGI
CCCc1[nH]nc(C(N)=O)c1N=NN(C)C	> 100 µM
Cc1cc(C)n(C(=O)CSc2nc3ccc(I)cc3c(=O)n2Cc2ccccc2)n1	> 100 µM
CC(C)C[C@H](NC(=O)Cn1ccc(Nc2ccccc2)cc1=O)B(O)O	12.4 µM
O=C(N/N=C/c1cc(Cl)cc(Cl)c1[O-])c1ccccc1O.O=C(N/N=C/c1cc(Cl)cc(Cl)c1[O-])c1ccccc1O.[Cl-].[Fe+3]	37.9 µM
C=C1CCc2ccccc2C1=O	> 100 µM
CSC(Cc1ccc2c(c1)Sc1ccccc1O2)=[N+]1CCOCC1	> 100 µM
CCOC(=O)c1cn2c(n1)sc1cc(C)c(C)cc12	> 100 µM
COc1ccc(Oc2ccc3cc4c(cc3c2O)OCO4)c2cc(C)oc12	> 100 µM
C=C1C(=O)O[C@H]2[C@H]1CC/C(COC(=O)CCCC(=O)OC/C1=C/CC[C@@]3(C)O[C@H]3[C@H]3OC(=O)C(=C)[C@@H]3CC1)=C\CC[C@@]1(C)O[C@@H]21	6.85 µM
N#Cc1c(Br)n(C2OC(CO)C(O)C2O)c2ncn3ccnc3c12 (stereo not given)	> 100 µM
COc1ccc(Nc2nc3c(N)cc(C(F)(F)F)cc3nc2-c2ccccc2)cc1OC	> 100 µM
CN1c2ccccc2NC(CC(=O)O)C2CC=CN21 (stereo not given)	> 100 µM
CC(C)CSCC1OC(n2cnc3c(N)nccc32)C(O)C1O (stereo not given)	> 100 µM
CN(/N=C(\C(=O)O)c1ccccc1)C1=NCCN1	> 100 µM
CC(=O)N(O)CCCCCNC(=O)CCC(=O)N(O)CCCCCNC(=O)CCC(=O)N(O)CCCCCN	> 100 µM
COc1cc([C@@H]2C3C(=O)c4ccccc4C3[C@@H](c3cc(OC)c(OC)c(OC)c3)C23Cc2ccccc2C3=O)cc(OC)c1OC (stereo not given in full)	> 100 µM
NCCc1ccc2oc3cc(=O)c4ccccc4c-3nc2c1	8.35 µM
C=C1C(=O)O[C@H]2[C@H]1CC/C(COC(=O)CCSSCCC(=O)OC/C1=C/CC[C@@]3(C)O[C@H]3[C@H]3OC(=O)C(=C)[C@@H]3CC1)=C\CC[C@@]1(C)O[C@@H]21	3.69 µM
C=C1C(NC)CCC23CC24CCC2(C)C(C(C)=O)C(O)CC2(C)C4CCC13 (stereo not given)	> 100 µM
COc1ccc(OC)c2c1C(=O)C(=O)C(Cl)=C2O	> 100 µM
COc1cc2c(oc(=O)c3cc(C)cc(OC)c32)c2c(C3OC(C)C(O)C(C)(O)C3O)ccc(O)c12 (stereo not given)	5.41 µM
Cc1cc(O)c(/C=N/c2nc(-c3ccc([N+](=O)[O-])cc3)cs2)c(=O)o1	> 100 µM
CC1(C)c2ccccc2C(C)(C)C(C(=O)Nc2ccccc2)C1C(=O)O (stereo not given)	> 100 µM
COc1ccc(/C=c2/sc3n(c2=O)NC2(CCCCC2)NN=3)cc1	> 100 µM
CC1=NN(C(=O)c2ccc(Cl)cc2)C(=O)C1N=Nc1ccc(S(=O)(=O)Nc2ncccn2)cc1 (stereo not given)	> 100 µM
C/C=C1\C(=O)O[C@H]2C/C(C)=C/CC/C(C)=C/CC[C@@]3(C)O[C@@H]3C[C@@H]12	> 100 µM
[N-]=[N+]=NC1C2CC3C4CC5CC3[C@H](C2)C(C5)C41 (stereo not given in full)	> 100 µM
CCOC(=O)c1c(SCc2ccccc2)nc2c3ccccc3ccn12	> 100 µM
CN(C)CCCn1c2c(c3ccc(-c4ccn[nH]4)cc3c1=O)C(=O)c1ccccc1-2	2.08 µM
Cc1cc(Oc2ccccc2)ccc1Nc1ncnc2ccc(-c3cnc(Cl)c(NS(C)(=O)=O)c3)cc12	7.43 µM
CC(C(=O)O)c1ccc(-n2nnc3c(=O)[nH][nH]c(=O)c32)cc1 (stereo not given)	> 100 µM
O=C(c1cccs1)N(C(=S)N1CCN(c2ccccc2)CC1)C1CCCCC1	> 100 µM
CO/C(=N\N=Cc1ccccc1)c1ccncc1	> 100 µM
CCOC(=O)c1ccc(NC(=O)O/N=C(/Cl)CC)cc1	36.1 µM
O=C(O)CSc1ccc(N=C=S)cc1	> 100 µM
CC1=C(c2cc(C(=O)Nc3cc(C)ccc3C)nc(N)n2)Sc2ccccc2N1	> 100 µM
O=C(O)c1ccccc1Sc1ccccc1[N+](=O)[O-]	> 100 µM
CC12OC3(C)OC(=O)C(c4ccccc4)(O1)C3(C)O2 (stereo not given)	> 100 µM
COc1cc(/C=C2\N=C(c3ccccc3)N(c3nc4ccc(Sc5ccccc5)cc4[nH]3)C2=O)ccc1O	57.9 µM
C=C1C(=O)OC2/C=C(/CO)C3(O)CC(O)C(C)(CC(OC(=O)/C(C)=C/C)C12)O3 (stereo not given)	42 µM
